Reported TGI is given for each of the following compounds.
test system: M14 melanoma; assay: NCI tumour cell line growth inhibition, 48 h

Worked examples, 8 compounds total:
compound | TGI
Cc1cc(O)cc(O)c1C(=O)O[C@]1(C)C(=O)C=C2C=C(/C=C/C(=O)O)OC=C2C1=O | > 100 µM
O=[N+]([O-])c1ccc(N2N=C(c3ccc4ccccc4c3O)CC2c2ccc(Cl)cc2)c([N+](=O)[O-])c1 (stereo unspecified) | > 100 µM
Clc1ccc(CNc2nccc(-c3cnn4ncccc34)n2)cc1 | > 17 µM
CC(C)C[C@H](NC(=O)CCn1ccc2ncccc2c1=O)B(O)O | > 47.3 µM
COc1c2ccsc2c(OC)c2ccsc12 | > 100 µM
C=Cc1nc(C#N)c(N)o1 | > 100 µM
Cn1ccnc1CCc1ccc(Cl)c(Cl)c1 | > 100 µM
COc1cc(C2CC(=O)Nc3c2ccc2ccccc32)cc(Br)c1OC (stereo unspecified) | 2.7 µM

Q) Reported TGI for M14 melanoma, given COc1nc2c(nc(N)n2C2OCC(O)C(O)C2O)c(=O)n1C (stereo unspecified) ?
A) > 100 µM

Q) Reported TGI for M14 melanoma, given "Cc1c2ccccc2c(C)n2c1nc1ccccc12" ?
A) 24.1 µM

Q) Reported TGI for M14 melanoma, given "CCn1c(=O)c2ccccc2n2c(=O)c3cc4ccccc4cc3nc12" ?
A) > 100 µM

----------
test system: NCI-H226 lung; experiment: NCI tumour cell line growth inhibition, 48 h
Reported TGI is given for each of the following compounds.

compound | value-measured
CC1CCCc2c1c1ccc3c(O)cccc3c1oc2=O (stereo not given) | > 100 µM
N=c1oc2ccccc2cc1-c1nc2ccccc2c(=O)[nH]1 | > 100 µM
Cc1ccc(S(=O)(=O)n2ccc(-c3ccc4ccn(S(=O)(=O)c5ccc(C)cc5)c4c3)c2)cc1 | > 100 µM
O=C(Nc1nc2ccc([N+](=O)[O-])cc2s1)C(=O)C(C(=O)c1ccncc1)C1OC(=O)c2ccccc21 (stereo not given) | > 100 µM

Q) Could you share which TGI value was measured for "Clc1ccc(CNc2nccc(-c3cnn4ncccc34)n2)cc1" ?
A) > 25 µM

Q) Could you share which TGI value was measured for "CCOC(=O)C(C)(C)Oc1ccc2c(-c3ccc(Cl)cc3)c(-c3ccc(Cl)cc3)c(=O)oc2c1" ?
A) > 100 µM

Q) Could you share which TGI value was measured for "Cc1cc2oc(C)c(S(=O)(=O)NC(=O)Nc3ccc(Cl)cc3)c(=O)c2c(=O)o1" ?
A) > 100 µM

Q) Could you share which TGI value was measured for "O=[N+]([O-])c1ccc(O)c(/C=N/c2nc(-c3ccccc3)cs2)c1" ?
A) 85.3 µM

Q) Could you share which TGI value was measured for COC12C=CC(C=C1C#N)CC2 (stereo not given) (tested in a mixture with another compound) ?
A) > 100 µM

Q) Could you share which TGI value was measured for Nc1nc(=O)n(C2OC(CO)C(O)C2O)c2ncc(-c3ccc(-c4ccccc4)cc3)nc12 (stereo not given) ?
A) 76.3 µM

----------
system: NCI-H23 lung; assay: NCI tumour cell line growth inhibition, 48 h
Reported TGI is given for each of the following compounds.

Worked examples, 7 compounds total:
compound | value-measured
CC(=O)N(C(C)=O)n1c(Cc2ccc(C)cc2)nn(C(C)=O)c1=O | > 100 µM
O=C1C2=C(SCCS2)C(=O)c2c(Sc3ccc(Cl)cc3)c(Sc3ccc(Cl)cc3)c(Sc3ccc(Cl)cc3)c(Sc3ccc(Cl)cc3)c21 | > 100 µM
COC(=O)c1cccc(OC)c1C#Cc1c(OC)cccc1OC | > 100 µM
CC(=O)OCC12CCC3C4(C)CCCC(C)(C)C4CCC3(C)C1CC(C1=CC(=O)OC1O)O2 (stereo not drawn) | 3.86 µM
CCCc1nnc2sc(COc3cc(Cl)c(OCc4nn5c(CCC)nnc5s4)cc3Cl)nn12 | > 100 µM
Nc1ccc2ccc(-c3ccc[nH]3)nc2n1 | > 100 µM
O=C(CSc1nnc(-c2ccc(N=Cc3ccc(Cl)cc3)cc2)o1)Nc1ccc([N+](=O)[O-])cc1 | 38.1 µM

Q) Could you share which TGI value was measured for "Nc1ccc(C(OC(=O)c2cc3ccccc3c(Cc3c(O)c(C(=O)OC(c4ccc(N)cc4)(c4ccc(N)cc4)c4ccc(N)cc4)cc4ccccc34)c2O)(c2ccc(N)cc2)c2ccc(N)cc2)cc1" ?
A) 17.3 µM

----------
tested on: NCI-H23 lung; assay: NCI tumour cell line growth inhibition, 48 h
Reported TGI is given for each of the following compounds.

compound | TGI
COc1cccc(N=N/C(=N\NC(=O)c2cc(Br)ccc2O)c2ccc(N(CCC#N)CCC#N)cc2OC)c1 | > 150 µg/mL
O=C1C(=O)N(c2nccs2)C(=O)C(=O)C1c1nc2ccccc2s1 | > 100 µM
COc1c(Cl)ccc2c(-c3nc4cc(Cl)c(F)cc4s3)cc(=O)oc12 | > 73.7 µM

Q) Reported TGI for NCI-H23 lung, given "CC1(C)CC([P+](c2ccccc2)(c2ccccc2)c2ccccc2)=NN1" ?
A) > 100 µM

Q) Reported TGI for NCI-H23 lung, given COC1=C2C=[N+](C)C3C(=C2C=CC1OC)Cc1cc2c(cc13)OCO2 (stereo not given) ?
A) 30.6 µM

----------
Reported TGI is given for each of the following compounds.
tested on: RXF-631 renal; assay: NCI tumour cell line growth inhibition, 48 h

Worked examples, 4 compounds total:
compound | TGI
Cc1ncc(CCl)c(CCl)c1O | > 100 µM
O=C(N/C(=C\c1ccc(/C=C(\NC(=O)c2ccccc2)c2nc3ccccc3s2)cc1)c1nc2ccccc2s1)c1ccccc1 | 20.6 µM
Cc1ccc(C2=C(c3ccc(C)cc3)C(c3ccc(C)cc3)=C(c3ccc(C)cc3)C2=O)cc1 | > 100 µM
N#Cc1ccc(Oc2cccc(Oc3ccccc3)c2)cc1C#N | > 100 µM

Query compound follows.
Q) Could you share which TGI value was measured for O=C(Nc1nc2ccc([N+](=O)[O-])cc2s1)C(=O)C(C(=O)c1ccncc1)C1OC(=O)c2ccccc21 (stereo not given) ?
A) > 100 µM

----------
test system: UACC-62 melanoma; assay: NCI tumour cell line growth inhibition, 48 h
Reported TGI is given for each of the following compounds.

Worked examples, 3 compounds total:
smiles-notation | value-measured
O=C1C2=C(SCCS2)C(=O)c2c(Sc3ccc(Cl)cc3)c(Sc3ccc(Cl)cc3)c(Sc3ccc(Cl)cc3)c(Sc3ccc(Cl)cc3)c21 | 52.8 µM
Cn1c(=O)c(C(=O)NC(=O)NCCCCCOC(=O)CCCCCCCCCCC(=O)OCCCCCNC(=O)NC(=O)c2cn(Cc3ccccc3)c(=O)n(C)c2=O)cn(Cc2ccccc2)c1=O | > 100 µM
O=C1/C(=C/c2ccccc2)NC(=S)N1CN1CCCCC1 | > 100 µM

Q) Could you share which TGI value was measured for "S=c1sc2cscc2s1" ?
A) 34 µM

Q) Could you share which TGI value was measured for "NC(=O)c1ccccc1NC(=O)c1ccccc1Cl" ?
A) > 100 µM

Q) Could you share which TGI value was measured for "COc1ccc(N=C2C(=Nc3ccc(OC)cc3)N(c3ccc(N(C)C)cc3)C(=S)N2c2ccc(OC)cc2)cc1" ?
A) > 100 µM

Q) Could you share which TGI value was measured for "CN(C)CCNC(=O)c1ccc(Cl)c2cc3ccccc3nc12" ?
A) 2.85 µM

Q) Could you share which TGI value was measured for "CCOC(=O)C(C)(C)Oc1ccc2c(-c3ccc(Cl)cc3)c(-c3ccc(Cl)cc3)c(=O)oc2c1" ?
A) > 100 µM

Q) Could you share which TGI value was measured for "CC(=O)OCCCCn1cc(Cn2ccc(=O)n(Cc3cn(CCCCOC(C)=O)nn3)c2=O)nn1" ?
A) > 100 µM

----------
system: HCT-15 colon; assay: NCI tumour cell line growth inhibition, 48 h
property-label: TGI

molecule | TGI
COc1ccc2c(CCNC(=O)/C=C/c3ccccc3)c(C(C)=O)[nH]c2c1[N+](=O)[O-] | > 100 µM
Nc1ccc2ccc(-c3ccc[nH]3)nc2n1 | > 100 µM
O=C(Nc1ccc(Br)cc1)C(=O)C(C(=O)c1ccccc1F)C1OC(=O)c2ccccc21 (centres undefined) | > 100 µM
O=C(C(Cl)=C(N1CCCCC1)N1CCCCC1)C(Cl)Cl | > 100 µM
O=C(O)CNC(=O)c1ccc2cc(C(=O)N3CC(CCl)c4ccc([N+](=O)[O-])cc43)[nH]c2c1 (centres undefined) | > 100 µM

Q) Could you share which TGI value was measured for "CC(C)C(=O)[O-].CC(C)C(=O)[O-].N.N.N.N.[Co+3].[O-][Cl+3]([O-])([O-])[O-]" ?
A) > 100 µM

Q) Could you share which TGI value was measured for O=C(NC1C2CC3CC(C2)CC1C3)/C(Cl)=C1/Sc2ccccc2NC1=O (centres undefined) ?
A) > 100 µM

Q) Could you share which TGI value was measured for COC1(c2cccs2)c2ccccc2C(OC)(c2cccs2)c2ccccc21 (centres undefined) ?
A) > 100 µM

Q) Could you share which TGI value was measured for C=C1C(OC/C=C/COC2O[C@@H]3O[C@@]4(C)CC[C@H]5[C@H](C)CC[C@@H](C2=C)[C@@]35OO4)O[C@@H]2O[C@@]3(C)CC[C@H]4[C@H](C)CC[C@@H]1[C@@]24OO3 (some centres undefined) ?
A) 16 µM

Q) Could you share which TGI value was measured for "CCOC(=O)C1=C(Nc2ccc(Br)cc2)OC/C1=N\NC(=O)c1ccccc1O" ?
A) > 65.3 µM
